- TEST TARGET: human recombinant Btk (Homo sapiens (Human))
- Sequence (Q06187 whole entry): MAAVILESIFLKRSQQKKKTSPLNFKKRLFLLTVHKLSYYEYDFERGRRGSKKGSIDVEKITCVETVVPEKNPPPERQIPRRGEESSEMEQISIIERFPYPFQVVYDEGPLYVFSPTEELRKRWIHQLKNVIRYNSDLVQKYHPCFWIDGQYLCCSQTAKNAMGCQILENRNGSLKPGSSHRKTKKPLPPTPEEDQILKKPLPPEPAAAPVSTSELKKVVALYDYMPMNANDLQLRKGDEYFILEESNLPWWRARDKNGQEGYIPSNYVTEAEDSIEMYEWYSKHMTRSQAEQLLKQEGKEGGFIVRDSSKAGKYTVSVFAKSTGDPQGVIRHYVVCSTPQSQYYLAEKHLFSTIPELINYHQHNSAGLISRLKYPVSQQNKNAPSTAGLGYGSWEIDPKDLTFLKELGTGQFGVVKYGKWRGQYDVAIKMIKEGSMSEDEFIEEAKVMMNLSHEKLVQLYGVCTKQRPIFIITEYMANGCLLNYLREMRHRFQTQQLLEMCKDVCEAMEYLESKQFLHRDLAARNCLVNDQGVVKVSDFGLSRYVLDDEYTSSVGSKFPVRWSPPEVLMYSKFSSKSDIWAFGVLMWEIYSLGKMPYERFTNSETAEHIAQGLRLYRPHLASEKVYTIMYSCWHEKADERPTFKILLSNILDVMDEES
- ASSAY REMARKS: Human Recombinant Btk Enzyme Assay
Attribute: IC50
PARAMETER: IC50 (pM)

>>> value_reported("COc1cccc2c(=O)n(-c3cccc(-c4c(Cl)cc(C(N)=O)c5[nH]c6cc(C(C)(C)O)ccc6c45)c3C)c(=O)n(C)c12 [Example 7]")
810
>>> value_reported("Cn1c(=O)n(-c2cccc(-c3c(Cl)cc(C(N)=O)c4[nH]c5cc(C(C)(C)O)ccc5c34)c2Cl)c(=O)c2ccccc21 [Example 43]")
470
>>> value_reported("Cc1c(-c2c(Cl)cc(C(N)=O)c3[nH]c4cc(C(C)(C)O)ccc4c23)cccc1-n1c(=O)c2cc(F)ccc2n(C)c1=O [Example 8]")
650

The values you see were collected from patent US9850258B2.
